# target or test system: BRD4 (BDI_K57-E168) (Homo sapiens)
# Construct: BD1: amino acids K57-E168; made in house
# experiment summary: TR-FRET bromodomain binding assay, first bromodomain of BRD4
# study conditions: TR-FRET assay protocol G (compound 0.92 μM-15 pM); 100 nM probe
pKi: −log10 of the molar value.
test readout: pKi

Worked set:
>>> print(df.to_string())
                                   molecule  endpoint_value
0  COc1ccc(NC(=O)N2Cc3c[nH]c4c(=O)n(C)cc(c34)-c3cc(CS(C)(=O)=O)ccc32)cc1 [Example 62]            8.14
1  CN(NC(=O)CCC1c2c[nH]c3c(=O)n(C)cc(c23)-c2cc(CS(C)(=O)=O)ccc2N1c1ccc(F)cc1F)c1ccccc1 (stereo not shown) [Example 122]            7.97

P: Cn1cc2c3c(c[nH]c3c1=O)CN(S(=O)(=O)C1CC1)c1ccc(CS(C)(=O)=O)cc1-2 [Example 172]
Q: CC(=O)OCCCCCCC1c2c[nH]c3c(=O)n(C)cc(c23)-c2cc(CS(C)(=O)=O)ccc2N1c1ccc(F)cc1F (stereo not shown) [Example 128]
Ask | So which one has the bigger pKi here, P or Q ? Give the chosen item's label as your response.
Reply | Q
(Q: 7.54, P: 7.24)

---

# target or test system: BRD4 (BDII_E352-M457) (Homo sapiens, UniProt O60885)
# Construct: protocol; made in house
# experiment summary: TR-FRET bromodomain binding assay, second bromodomain of BRD4
# study conditions: TR-FRET assay protocol G (compound 0.92 μM-15 pM); 30 nM probe
test readout: Ki (nM)

                                   compound  unit_spec  endpoint_value
0  CCOCCCC1c2c[nH]c3c(=O)n(C)cc(c23)-c2cc(CS(C)(=O)=O)ccc2N1c1ccc(F)cc1F (centres unmarked)         nM            0.54

A: COc1ccccc1S(=O)(=O)N1Cc2c[nH]c3c(=O)n(C)cc(c23)-c2cc(CS(C)(=O)=O)ccc21
B: Cn1cc2c3c(c[nH]c3c1=O)C(CCC(=O)NC1CCS(=O)(=O)C1)N(c1ccc(F)cc1F)c1ccc(CS(C)(=O)=O)cc1-2 (centres unmarked)
Ask | // compare: A vs B , metric Ki, want the smaller Give the chosen item's label as your response.
Reply | B

a: Cc1cccc(C)c1NC(=O)N1Cc2c[nH]c3c(=O)n(C)cc(c23)-c2cc(CS(C)(=O)=O)ccc21
b: Cn1cc2c3c(c[nH]c3c1=O)CN(C(=O)c1ccc(F)cc1)c1ccc(CS(C)(=O)=O)cc1-2
Ask | So which one has the bigger Ki here, a or b ? Give the chosen item's label as your response.
Reply | b

A: COC(=O)CCC1c2c[nH]c3c(=O)n(C)cc(c23)-c2cc(CS(C)(=O)=O)ccc2N1c1ccc(F)cc1F (centres unmarked) [Example 268]
B: Cn1cc2c3c(c[nH]c3c1=O)C(c1ccc(-n3ccnc3)cc1)N(c1ccc(F)cc1F)c1ccc(CS(C)(=O)=O)cc1-2 (racemic)
Ask | // compare: A vs B , metric Ki, want the smaller Give the chosen item's label as your response.
Reply | B

P: Cn1cc2c3c(c(CN4CCOCC4)[nH]c3c1=O)CN(c1ccc(Cl)cc1)c1ccc(CS(C)(=O)=O)cc1-2
Q: CCCCC(CC)COC(=O)N1Cc2c[nH]c3c(=O)n(C)cc(c23)-c2cc(CS(C)(=O)=O)ccc21 (centres unmarked)
R: COCCC(=O)N1Cc2c[nH]c3c(=O)n(C)cc(c23)-c2cc(CS(C)(=O)=O)ccc21
S: CN(C)C(=O)CCC1c2c[nH]c3c(=O)n(C)cc(c23)-c2cc(CS(C)(=O)=O)ccc2N1c1ccc(F)cc1F (centres unmarked)
Ask | Order field: Ki | Direction: descending (largest first) // ordering of labels required in reply
Reply | Q, P, R, S
